Every entry's value here was drawn from ChEMBL document CHEMBL1123891.

- Tested on: Mus musculus
- PROCEDURE_TEXT: Mean survival time was determined against Plasmodium berghei treated mice (Mus musculus) after (subcutaneously) administration of 320 mg/kg
- Assay type: functional
- Set-up: unit not given beside the values
- CONDITION_SUMMARY: route subcutaneous
Mark Y only for Delta MST values smaller than 5; exact matches and larger values are N.

Here are 4 compounds together with their reported answers.
compound=ClC(Cl)(Cl)c1nc(NCCCCN2CCCC2)nc(C(Cl)(Cl)Cl)n1 class_label=Y
compound="CCN1CCCC(Nc2nc(/N=C(\\N)Nc3ccc(Cl)cc3)nc(C(Cl)(Cl)Cl)n2)C1 (stereo not given)" class_label=N
compound=ClC(Cl)(Cl)c1nc(NCCCN2CCCC2)nc(C(Cl)(Cl)Cl)n1 class_label=Y
compound=ClC(Cl)(Cl)c1nc(NCCCCCN2CCCC2)nc(C(Cl)(Cl)Cl)n1 class_label=N

**Q:** Here's an entry: CN(C)CCCNc1nc(C(Cl)(Cl)Cl)nc(C(Cl)(Cl)Cl)n1 . Is its Delta MST below 5?
**A:** N

* * *

// Delta MST lookup, one value per entry
- Test system: Mus musculus
- PROCEDURE_TEXT: Mean survival time was determined against Plasmodium berghei treated mice (Mus musculus) after (subcutaneously) administration of 160 mg/kg
- Assay type: functional
- Parameters: unit not given beside the values
- CONDITION_SUMMARY: route subcutaneous

Solved cases (3 shown):
compound="CCN1CCCC(Nc2nc(C(Cl)(Cl)Cl)nc(C(Cl)(Cl)Cl)n2)C1 (centres undefined)" measured_endpoint="Delta MST" experimental_value=2.8
compound=ClC(Cl)(Cl)c1nc(NCCCN2CCCC2)nc(C(Cl)(Cl)Cl)n1 measured_endpoint="Delta MST" experimental_value=1
compound=ClC(Cl)(Cl)c1nc(NCCCCN2CCCC2)nc(C(Cl)(Cl)Cl)n1 measured_endpoint="Delta MST" experimental_value=2.8

--- query ---
Given item ClC(Cl)(Cl)c1nc(NCCCCCN2CCCC2)nc(C(Cl)(Cl)Cl)n1 , the value recorded as its Delta MST is 2.3

* * *

- Tested on: Mus musculus
- PROCEDURE_TEXT: Mean survival time was determined against Plasmodium berghei treated mice (Mus musculus) after (subcutaneously) administration of 20 mg/kg
- Type: functional
- CONDITION_SUMMARY: route subcutaneous
Recorded Delta MST values for a group of molecules are listed next.
Note: the reply should be a number with no unit written.

molecule=N=C(Nc1ccc(Cl)cc1)Nc1nc(NCCCN2CCCC2)nc(C(Cl)(Cl)Cl)n1 experimental_value=0.5
molecule="CCN1CCCC(Nc2nc(/N=C(\\N)Nc3ccc(Cl)cc3)nc(C(Cl)(Cl)Cl)n2)C1 (stereo not given)" experimental_value=0.3
molecule=ClC(Cl)(Cl)c1nc(NCCCCN2CCCC2)nc(C(Cl)(Cl)Cl)n1 experimental_value=0.2
molecule=ClC(Cl)(Cl)c1nc(NCCCCCN2CCCC2)nc(C(Cl)(Cl)Cl)n1 experimental_value=0

So for ClC(Cl)(Cl)c1nc(NCCCN2CCCC2)nc(C(Cl)(Cl)Cl)n1 , the logged Delta MST turned out to be 0
